- System: S. pneumoniae SV1 SP-3
- test: in vitro antibacterial activity (MIC), S. pneumoniae
- Type: cell-based
- conditions: Streptococcus pneumoniae, SV1SP3, strain SV1 SP-3, lowest concentration preventing macroscopically visible growth

{"smiles-structure": "CCC(=O)NC[C@H]1CN(c2ccc3c(c2)CCOC(=O)N3C)C(=O)O1", "assay-system": "S. pneumoniae SV1 SP-3", "MIC": "8 µg/mL"}
{"smiles-structure": "CC(=O)NC[C@H]1CN(c2ccc3c(c2)CCOC(=O)N3C)C(=O)O1", "assay-system": "S. pneumoniae SV1 SP-3", "MIC": "4 µg/mL"}
{"smiles-structure": "COC(=O)NC[C@H]1CN(c2cc(F)c3c(c2)CCOC(=O)N3C)C(=O)O1", "assay-system": "S. pneumoniae SV1 SP-3", "MIC": "8 µg/mL"}
{"smiles-structure": "COC(=O)NC[C@H]1CN(c2ccc3c(c2)COC(=O)N3C)C(=O)O1", "assay-system": "S. pneumoniae SV1 SP-3", "MIC": "4 µg/mL"}
{"smiles-structure": "CCC(=O)NC[C@H]1CN(c2cc(F)c3c(c2)CCOC(=O)N3C)C(=O)O1", "assay-system": "S. pneumoniae SV1 SP-3", "MIC": "8 µg/mL"}
